# System: corn (Zea mays)
# Assay notes: Test C preemergence
# Assay type: in vivo
# Recorded conditions: preemergence, Rate 62 g/ha, scale 0 to 100
Measure: Plant response rating, Corn
Give the figure only, with no unit attached.

Here's what some known entries look like.
CCC(CC)c1ccn(C2CCN(c3ccc(Cl)c(OC)c3)C2=O)n1 (stereo not shown) ... 0
COc1cc(N2CCC(n3ccc(C(C)C)n3)C2=O)ccc1Cl (stereo not shown) ... 0

Plant response rating, Corn in this record for CCOc1cccc(N2CCC(n3ccc(C(C)C)n3)C2=O)c1 (stereo not shown) : 0

Plant response rating, Corn in this record for CCCC(C)c1ccn(C2SCN(c3cccc(C(F)(F)F)c3)C2=O)n1 (stereo not shown) : 0

Plant response rating, Corn in this record for COc1cc(N2CCC(n3ccc(C(C)(C)C)n3)C2=O)ccc1Br (stereo not shown) : 0

Plant response rating, Corn in this record for CCC(C)c1ccn(C2CCN(c3cccc(OC)c3)C2=O)n1 (stereo not shown) : 10

Plant response rating, Corn in this record for CC(C)(C)c1ccn(C2OCN(c3cccc(OC(F)F)c3)C2=O)n1 (stereo not shown) : 100
